experiment: Predicted gefitinib exposure (empirical Bayesian estimates), inter- and intra-patient comparison with/without ILD; type: in vivo, Japanese patients with NSCLC; details: human, plasma, oral, 250 mg, steady state, 250 mg once daily; patients without ILD; Fig. 1d; read-out: Cmax,ss
readout: Cmax (ng/mL)

smilesInput: COc1cc2ncnc(Nc3ccc(F)c(Cl)c3)c2cc1OCCCN1CCOCC1
readout: Cmax
observedValue: 434

----------
test: Predicted gefitinib exposure (empirical Bayesian estimates), inter- and intra-patient comparison with/without ILD; type: in vivo, Japanese patients with NSCLC; details: human, plasma, oral, 250 mg, steady state; patients with ILD; Fig. 1d; read-out: Cmax,ss

smilesInput: COc1cc2ncnc(Nc3ccc(F)c(Cl)c3)c2cc1OCCCN1CCOCC1
outputUnit: ng/mL
Cmax: 517
